melting point values, listed per item

Query string: Hello, please tell me recorded melting point for this one: Nc1nc(NC(CO)CO)c2ncn(C3C=CC(CO)C3)c2n1 (stereo not drawn)
Result string: 160 to 162 °C

New cases:
Query string: Hello, please tell me recorded melting point for this one: COc1ccc(N=C(C#Cc2ccccc2)N2CCCN(Cc3ccc(C)cc3)CC2)cc1
Result string: 66 °C

Query string: Hello, please tell me recorded melting point for this one: O=C(CC(=O)C(F)(F)F)Nc1cc(-c2cccs2)n[nH]1
Result string: 259 to 261 °C

###

melting point values, listed per item

Please review the entries below; each comes with its answer.
Query string: Hello, please tell me recorded melting point for this one: Cc1nc(N2CCN(Cc3cccc(C(=O)O)c3)C2=O)sc1C(=O)NCc1ccccc1
Result string: 120 to 123 °C

Query string: Hello, please tell me recorded melting point for this one: COc1ccc(-c2cc(=O)c3cc(OCCCCCCN4CCC(O)CC4)ccc3o2)cc1
Result string: 134 to 135 °C

Query string: Hello, please tell me recorded melting point for this one: NC(=O)CCCCCN1CCN(c2csc3cc(F)ccc23)CC1
Result string: 141 to 142 °C

Query string: Hello, please tell me recorded melting point for this one: CC(=O)OC1O[C@H](CN=[N+]=[N-])[C@H](OC(C)=O)[C@H](OC(C)=O)[C@H]1OC(C)=O (stereo partly drawn)
Result string: 89.9 to 90.3 °C

Query string: Hello, please tell me recorded melting point for this one: O=S(=O)(c1ccccc1)c1c[nH]c2cccc(Br)c12
Result string: 202 to 207 °C

Query string: Hello, please tell me recorded melting point for this one: CCN(C(=O)OC(C)(C)C)C1CC=C(c2c[nH]c3ccc(NC(=N)c4cccs4)cc23)CC1 (stereo not drawn)
Result string: 124 to 126 °C

New cases:
Query string: Hello, please tell me recorded melting point for this one: Cc1cccc(C(=O)Nc2cccc3c2C(=O)N(C2CCC(=O)NC2=O)C3=O)c1 (stereo not drawn)
Result string: 234 to 236 °C

Query string: Hello, please tell me recorded melting point for this one: O=C(N[C@@H](Cc1ccccc1)[C@@H](O)[C@H](O)[C@H](Cc1ccccc1)NC(=O)c1ccccn1)c1ccccn1
Result string: 179 to 184 °C
